Measured growth by item
system: SK-MEL-2 melanoma; assay: NCI-60 one-dose screen, 48 h (100 = growth as untreated, 0 = no growth, -100 = all killed); conditions: 10 µM unless noted
Compounds without any hit were thinned out: in the full panel of roughly 83,000, 20% have a hit.
Dear colleague, please return just the value in %, with no unit written.

Reference set, count: 2
Compound	Experimental Value
O=[N+]([O-])c1cc([N+](=O)[O-])c(C(F)(F)F)cc1NN=C(c1ccc(O)cc1)c1ccc(O)cc1	-80.3
COc1ccc(-c2cc(-c3ccccc3)nc(NCCNc3ccnc4cc(Cl)ccc34)n2)cc1	-77.3

Entry C/C=C/C1OC23CCCCC2C(C#N)(C(=N)O3)C1(C#N)C#N (centres undefined) : reported growth = ?
107

// lookup growth for Cc1cccc(C[C@H](NC(=O)Nc2ccc(C)cc2F)C(=O)N[C@@H]2C(=O)N3C[C@H](O)C[C@H]3C(=O)N3CCN(C)C[C@H]3C(=O)N[C@@H](C)C(=O)N3C[C@H](C)C[C@H]3C(=O)O[C@H]2C)c1
39.9

Dear colleague, I am looking for the recorded growth of the following compound: O=C1Nc2ccccc2/C1=C/C(=O)c1ccc(N2CCCC2)cc1
58.7
